target: elastase (from human leukocytes) (Homo sapiens); construct: elastase (from human leukocytes, Sigma); purchased Sigma; host or cells: human leukocytes (cell-derived); test: Proteolytic digestion assessed by reverse-phase HPLC; assay type: in vitro ADME; settings: isolated enzyme elastase, pH 7.3
Sequence (P08246 30-247 limits assumed): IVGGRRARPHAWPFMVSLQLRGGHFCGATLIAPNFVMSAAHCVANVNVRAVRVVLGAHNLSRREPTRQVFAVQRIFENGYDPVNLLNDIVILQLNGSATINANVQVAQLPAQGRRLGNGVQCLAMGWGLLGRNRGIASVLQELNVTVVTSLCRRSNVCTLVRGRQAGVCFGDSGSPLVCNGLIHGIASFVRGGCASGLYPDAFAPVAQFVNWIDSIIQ
Square brackets hold non-standard residues; d marks the D form. Peptide text beside a SMILES is read from it.
reported endpoint: metabolised at 0.5 h, 140 μM

Given the entry CC(C)C[C@H](NC(=O)[C@H](CCCCN)NC(=O)[C@H](CC(C)C)NC(=O)[C@@H](CC(C)C)NC(=O)[C@H](CC(C)C)NC(=O)[C@@H](N)CCCCN)C(=O)N[C@@H](CC(C)C)C(=O)N[C@H](CCCCN)C(=O)N[C@H](CCCCN)C(=O)N[C@@H](CC(C)C)C(=O)N[C@@H](CC(C)C)C(=O)N[C@@H](CCCCN)C(=O)N[C@H](CC(C)C)C(=O)N[C@@H](CC(C)C)C(=O)N[C@@H](CCCCN)C(N)=O [Peptide 2, [D]-L^3,13,K^8,9-K6L9] (H-KL[dL]LKLL[dK][dK]LLK[dL]LK-NH2) , report its measured metabolised at 0.5 h, 140 μM.
6%

====

assay: Cell selectivity, Trypan blue cell viability, LC50; format: cell-based, mouse; details: mouse, NIH-3T3 fibroblasts; 50% cell mortality after 24 h incubation, medium without serum; read-out: Lethal Concentration (LC50), NIH-3T3 fibroblasts
Square brackets hold non-standard residues; d marks the D form. Peptide text beside a SMILES is read from it.
reported endpoint: CC50 at 24 h (µg/mL)
Write the answer as a number in µg/mL, unit excluded.

Can you look up the measured CC50 at 24 h of CC(C)C[C@H](NC(=O)[C@H](CC(C)C)NC(=O)[C@@H](CCCCN)NC(=O)[C@@H](CCCCN)NC(=O)[C@H](CC(C)C)NC(=O)[C@@H](CC(C)C)NC(=O)[C@H](CCCCN)NC(=O)[C@H](CC(C)C)NC(=O)[C@@H](CC(C)C)NC(=O)[C@H](CC(C)C)NC(=O)[C@@H](N)CCCCN)C(=O)N[C@@H](CCCCN)C(=O)N[C@H](CC(C)C)C(=O)N[C@@H](CC(C)C)C(=O)N[C@@H](CCCCN)C(N)=O [Peptide 10, [D]-L^3,6,13,K^8,9,13-K6L9] (H-KL[dL]LK[dL]L[dK][dK]LLK[dL]LK-NH2; N-terminus assumed) for me?
140

====

target: trypsin (from bovine pancreas) (Bos taurus); assay: in vitro; settings: pH 7.3
Sequence (P00760 24-246): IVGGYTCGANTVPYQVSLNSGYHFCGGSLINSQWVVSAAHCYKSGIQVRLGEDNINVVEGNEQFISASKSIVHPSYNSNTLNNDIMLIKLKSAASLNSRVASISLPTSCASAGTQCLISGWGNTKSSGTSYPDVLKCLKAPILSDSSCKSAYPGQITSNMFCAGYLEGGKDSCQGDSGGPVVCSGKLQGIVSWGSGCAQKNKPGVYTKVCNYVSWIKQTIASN
Square brackets hold non-standard residues; d marks the D form. Peptide text beside a SMILES is read from it.
reported endpoint: metabolised at 0.5 h, 140 μM (%)
Response body: numeric value in %, unit text excluded.

Could you tell me which metabolised at 0.5 h, 140 μM is on file for CC(C)C[C@H](NC(=O)[C@H](CCCCN)NC(=O)[C@H](CC(C)C)NC(=O)[C@@H](CC(C)C)NC(=O)[C@H](CC(C)C)NC(=O)[C@@H](N)CCCCN)C(=O)N[C@@H](CC(C)C)C(=O)N[C@H](CCCCN)C(=O)N[C@H](CCCCN)C(=O)N[C@@H](CC(C)C)C(=O)N[C@@H](CC(C)C)C(=O)N[C@@H](CCCCN)C(=O)N[C@H](CC(C)C)C(=O)N[C@@H](CC(C)C)C(=O)N[C@@H](CCCCN)C(N)=O [Peptide 2, [D]-L^3,13,K^8,9-K6L9] (H-KL[dL]LKLL[dK][dK]LLK[dL]LK-NH2) ?
32
